# Lookup of reported pGI50 keyed by entry
# Tested on: A2780
# procedureText: Growth inhibition of human A2780 cells after 48 hrs by sulforhodamine B assay
# Type: functional
# experimentalConditions: A2780, 48 h
# respond with the number and nothing more

Known results for compounds:
C=C(C(=O)O)[C@@H]1CC[C@@]2(C)CCC[C@@](C)(O)[C@@H]2C1 [ILICIC ACID]
4
C=C(C(=O)O)[C@@H]1CCC2=CC(=O)C[C@H](C)[C@@]2(C)C1 [TESSARIC ACID]
4
C=C(CO)[C@@H]1CC[C@@]2(C)CCC[C@@](C)(O)[C@@H]2C1 [ILICIC ALCOHOL]
4
C=C(C(=O)OC)[C@@H]1CCC2=CC(=O)C[C@H](C)[C@@]2(C)C1 [TESSARIC ACID METHYL ESTER]
5.75
C=C(C(=O)OC)[C@@H]1CC[C@@]2(C)CCC[C@@](C)(O)[C@@H]2C1 [VACHANIC ACID METHYLESTER]
4

Prompt line: I'd like to know its pGI50. The compound in question is C=C(C(=O)O)[C@@H]1CC[C@@]2(C)CCCC(C)=C2C1
Response line: 4

###

# Test system: HBL-100
# procedureText: Growth inhibition of human HBL100 cells after 48 hrs by sulforhodamine B assay
# Assay type: functional
# experimentalConditions: HBL-100, 48 h, read-out: GI50
Mark yes for GI50 under 10 µM, no if at or over.

Example cases with answers are listed next.
C=C(C(=O)OC)[C@@H]1CC[C@@]2(C)CCCC(C)=C2C1
no
C=C(C=O)[C@@H]1CC[C@@]2(C)CCC[C@@](C)(O)[C@@H]2C1 [ILICIC ALDEHYDE]
yes

Prompt line: Please determine if C=C(C(=O)O)[C@@H]1CCC2=CC(=O)C[C@H](C)[C@@]2(C)C1 [TESSARIC ACID] is below 10 µM in terms of GI50.
Response line: no

Prompt line: Item: C=C(C(=O)O)[C@@H]1CC[C@@]2(C)CCCC(C)=C2C1
Response line: no

Prompt line: Please answer likewise for C=C(CO)[C@@H]1CC[C@@]2(C)CCC[C@@](C)(O)[C@@H]2C1 [ILICIC ALCOHOL]
Response line: no

Prompt line: What do you have for C=C(C(=O)OC)[C@@H]1CC[C@@]2(C)CCC[C@@](C)(O)[C@@H]2C1 [VACHANIC ACID METHYLESTER] ?
Response line: no

Prompt line: Query C=C(C(=O)O)[C@@H]1CC[C@@]2(C)CCC[C@@](C)(O)[C@@H]2C1 [ILICIC ACID] next
Response line: no

Prompt line: // next record C=C(C(=O)OC)[C@@H]1CCC2=CC(=O)C[C@H](C)[C@@]2(C)C1 [TESSARIC ACID METHYL ESTER]
Response line: yes

Prompt line: // same read-out, input: CC[C@@]1(O)C(=O)OCc2c1cc1n(c2=O)Cc2cc3ccccc3nc2-1 [CAMPTOTHECIN]
Response line: yes

Prompt line: Repeat with C=C(C(=O)OC)[C@@H]1CCC2=C[C@H](O)C[C@H](C)[C@@]2(C)C1
Response line: no

Prompt line: Would you mind doing O=c1[nH]cc(F)c(=O)[nH]1 [FLUOROURACIL] as well?
Response line: yes

###

# Test system: HeLa
# procedureText: Growth inhibition of human HeLa cells after 48 hrs by sulforhodamine B assay
# Format: functional
assayMetric: pGI50
Lab note: jot down the number only; don't add units.

C=C(C(=O)O)[C@@H]1CC[C@@]2(C)CCCC(C)=C2C1
4

Prompt line: Which pGI50 value is on record for C=C(C(=O)OC)[C@@H]1CCC2=CC(=O)C[C@H](C)[C@@]2(C)C1 [TESSARIC ACID METHYL ESTER] ?
Response line: 5.35

Prompt line: Please do the same for C=C(C(=O)OC)[C@@H]1CC[C@@]2(C)CCC[C@@](C)(O)[C@@H]2C1 [VACHANIC ACID METHYLESTER] as well.
Response line: 4

Prompt line: Follow-up entry: C=C(C(=O)O)[C@@H]1CC[C@@]2(C)CCC[C@@](C)(O)[C@@H]2C1 [ILICIC ACID]
Response line: 4

Prompt line: Another molecule: C=C(CO)[C@@H]1CC[C@@]2(C)CCC[C@@](C)(O)[C@@H]2C1 [ILICIC ALCOHOL]
Response line: 4

Prompt line: C=C(C(=O)O)[C@@H]1CCC2=CC(=O)C[C@H](C)[C@@]2(C)C1 [TESSARIC ACID] ?
Response line: 4

###

# Tested on: T47D
# procedureText: Growth inhibition of human T47D cells after 48 hrs by sulforhodamine B assay
# Assay type: functional
Listed compounds paired with reported pGI50

Known results for compounds:
C=C(C(=O)O)[C@@H]1CC[C@@]2(C)CCCC(C)=C2C1
4
C=C(C(=O)OC)[C@@H]1CC[C@@]2(C)CCCC(C)=C2C1
4.48
C=C(C(=O)O)[C@@H]1CCC2=CC(=O)C[C@H](C)[C@@]2(C)C1 [TESSARIC ACID]
4

Prompt line: Please state recorded pGI50 (tested on T47D) of C=C(CO)[C@@H]1CC[C@@]2(C)CCC[C@@](C)(O)[C@@H]2C1 [ILICIC ALCOHOL]
Response line: 4

Prompt line: Another compound: C=C(C(=O)OC)[C@@H]1CC[C@@]2(C)CCC[C@@](C)(O)[C@@H]2C1 [VACHANIC ACID METHYLESTER]
Response line: 4

Prompt line: What about C=C(C(=O)O)[C@@H]1CC[C@@]2(C)CCC[C@@](C)(O)[C@@H]2C1 [ILICIC ACID] ?
Response line: 4

This collection of values is drawn from ChEMBL document CHEMBL1152527.
